# assayed-target: FGFR2 (Homo sapiens)
# Construct: FGFR2's cytoplasmic domain [399-821 (terminal) amino acids]; purchased Carna 08-134
# Sequence (P21802 399-821): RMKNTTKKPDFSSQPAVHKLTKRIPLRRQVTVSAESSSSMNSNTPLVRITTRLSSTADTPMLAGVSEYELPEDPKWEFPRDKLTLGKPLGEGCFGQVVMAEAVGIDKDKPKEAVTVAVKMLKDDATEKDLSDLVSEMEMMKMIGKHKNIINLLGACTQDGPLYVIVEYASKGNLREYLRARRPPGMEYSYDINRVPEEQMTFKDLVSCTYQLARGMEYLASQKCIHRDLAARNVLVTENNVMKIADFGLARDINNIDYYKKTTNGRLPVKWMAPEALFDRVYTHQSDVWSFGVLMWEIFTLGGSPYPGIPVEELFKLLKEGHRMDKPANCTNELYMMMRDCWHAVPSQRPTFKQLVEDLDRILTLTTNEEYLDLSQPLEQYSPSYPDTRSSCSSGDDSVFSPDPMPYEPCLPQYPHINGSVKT
# measurement-description: FGFR2 kinase activity inhibition assay (LanthaScreen TR-FRET)
# Assay type: biochemical
# assay-conditions: FGFR2 kinase, TR-FRET; read-out: IC50 (nM) FGFR2

- molecule: "CC(Oc1ccc2[nH]nc(-c3cnn(C)c3)c2c1)c1nc(C(F)F)cc2nccnc12 (stereo not drawn) [Example 236]"
  IC50: "1 to 10 nM"
- molecule: "Cc1c(F)cc2ncccc2c1C(C)Oc1ccc2[nH]nc(-c3cnn(C)c3)c2c1 (stereo not drawn) [Example 161]"
  IC50: "10 to 100 nM"
- molecule: "C[C@@H](Oc1cc(C2CC2)c2[nH]nc(-c3cnn(C)c3)c2c1)c1c(Cl)cncc1Cl [Example 7]"
  IC50: "10 to 100 nM"
